Where do the numbers come from? From patent US11666658B2.

# Study system: T1, Ac-LDL binding to His9-hMSR1 (Homo sapiens, UniProt P21757)
# T1 construct: human MSR1 extracellular domain expressed with a N-terminal nonahistidine tag; purchased R&D Systems 2708-MS
# T1 sequence (P21757 77-451 limits assumed): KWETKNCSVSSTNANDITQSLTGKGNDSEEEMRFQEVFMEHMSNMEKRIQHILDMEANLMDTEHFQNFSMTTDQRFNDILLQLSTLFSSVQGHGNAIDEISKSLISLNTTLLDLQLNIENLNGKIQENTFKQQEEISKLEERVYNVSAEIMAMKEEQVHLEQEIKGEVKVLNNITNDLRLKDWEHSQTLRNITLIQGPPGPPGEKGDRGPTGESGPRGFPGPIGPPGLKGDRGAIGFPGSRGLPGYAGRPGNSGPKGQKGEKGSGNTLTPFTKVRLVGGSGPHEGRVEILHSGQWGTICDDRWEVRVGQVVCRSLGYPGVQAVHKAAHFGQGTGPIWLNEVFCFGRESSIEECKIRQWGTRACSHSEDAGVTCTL
# Test method notes: Competition sandwich ELISA, Ac-LDL
# Stated conditions: anti-MSR1 antibody 100 nM, 50 pM Ac-LDL
Measurement name: % Blocking of Ac-LDL binding to His9-hMSR1 (%)
Provide the reading as a plain figure in %.

Known results for molecules:
H1H21227N-N297D: "The 21227N antibody was also produced as a third version with a N297D mutation" (antibody, V domains shown) VH: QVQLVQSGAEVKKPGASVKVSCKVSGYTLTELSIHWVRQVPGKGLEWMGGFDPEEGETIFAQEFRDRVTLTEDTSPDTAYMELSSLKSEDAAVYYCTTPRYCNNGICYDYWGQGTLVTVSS VL: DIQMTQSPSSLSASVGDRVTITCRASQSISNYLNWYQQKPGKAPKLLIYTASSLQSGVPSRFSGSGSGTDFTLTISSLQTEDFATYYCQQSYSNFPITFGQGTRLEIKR; 101
H1H21227N: "Three anti-MSR1 antibodies ... (21227N, 21231N, 21234N) were produced with the original human Fcγ portion" (antibody, V domains shown) VH: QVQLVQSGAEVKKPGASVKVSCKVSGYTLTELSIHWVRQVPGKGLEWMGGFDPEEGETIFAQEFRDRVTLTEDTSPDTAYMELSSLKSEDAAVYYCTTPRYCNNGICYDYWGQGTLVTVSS VL: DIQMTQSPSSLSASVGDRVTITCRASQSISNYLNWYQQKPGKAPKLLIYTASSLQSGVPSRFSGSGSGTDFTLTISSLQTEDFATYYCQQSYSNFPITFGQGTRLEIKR; 105

State the recorded % Blocking of Ac-LDL binding to His9-hMSR1 for this entry: H1H21231N: "Three anti-MSR1 antibodies ... (21227N, 21231N, 21234N) were produced with the original human Fcγ portion" (antibody, V domains shown) VH: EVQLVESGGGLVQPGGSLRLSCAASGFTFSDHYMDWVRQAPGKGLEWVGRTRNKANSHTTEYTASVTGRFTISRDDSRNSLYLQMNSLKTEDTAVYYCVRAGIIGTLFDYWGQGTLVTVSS VL: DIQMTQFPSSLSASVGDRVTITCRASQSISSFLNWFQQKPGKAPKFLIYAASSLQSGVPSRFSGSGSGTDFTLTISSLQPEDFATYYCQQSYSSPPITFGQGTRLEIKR
−62
